target: α4β2-subtype (central nicotine receptor) (Rattus norvegicus, UniProt P09483+P12390); construct: Membrane-enriched fractions of rat brain without cerebellum; tissue ABS Inc. Wilmington, Del; host or cells: rat brain without cerebellum, membrane-enriched fractions; test: Radioligand assay: [3H] cytisin binding to the α4β2-subtype in rat brain membranes; settings: [3H] cytisin 0.75 nM, rat brain membranes without cerebellum, 75 min at 4° C.; mean of at least three determinations; Ki from IC50 by Cheng-Prusoff; read-out: Ki Values of the Enantiomer Pairs
Sequence (P09483 31-630): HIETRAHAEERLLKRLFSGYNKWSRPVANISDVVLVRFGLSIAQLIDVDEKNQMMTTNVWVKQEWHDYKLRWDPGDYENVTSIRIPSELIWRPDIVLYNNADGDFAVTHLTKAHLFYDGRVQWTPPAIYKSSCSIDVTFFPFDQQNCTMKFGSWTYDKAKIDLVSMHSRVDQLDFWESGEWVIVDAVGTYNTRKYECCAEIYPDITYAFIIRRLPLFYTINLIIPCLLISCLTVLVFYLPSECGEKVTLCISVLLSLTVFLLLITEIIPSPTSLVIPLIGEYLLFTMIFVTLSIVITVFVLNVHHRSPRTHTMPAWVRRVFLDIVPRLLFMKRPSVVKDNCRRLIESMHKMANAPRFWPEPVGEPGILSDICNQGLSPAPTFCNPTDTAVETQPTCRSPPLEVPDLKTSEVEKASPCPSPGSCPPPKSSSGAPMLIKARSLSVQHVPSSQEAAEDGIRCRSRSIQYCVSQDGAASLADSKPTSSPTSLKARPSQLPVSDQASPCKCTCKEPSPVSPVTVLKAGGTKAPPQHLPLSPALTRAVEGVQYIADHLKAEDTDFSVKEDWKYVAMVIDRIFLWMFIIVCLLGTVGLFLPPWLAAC
Sequence (P12390 25-500): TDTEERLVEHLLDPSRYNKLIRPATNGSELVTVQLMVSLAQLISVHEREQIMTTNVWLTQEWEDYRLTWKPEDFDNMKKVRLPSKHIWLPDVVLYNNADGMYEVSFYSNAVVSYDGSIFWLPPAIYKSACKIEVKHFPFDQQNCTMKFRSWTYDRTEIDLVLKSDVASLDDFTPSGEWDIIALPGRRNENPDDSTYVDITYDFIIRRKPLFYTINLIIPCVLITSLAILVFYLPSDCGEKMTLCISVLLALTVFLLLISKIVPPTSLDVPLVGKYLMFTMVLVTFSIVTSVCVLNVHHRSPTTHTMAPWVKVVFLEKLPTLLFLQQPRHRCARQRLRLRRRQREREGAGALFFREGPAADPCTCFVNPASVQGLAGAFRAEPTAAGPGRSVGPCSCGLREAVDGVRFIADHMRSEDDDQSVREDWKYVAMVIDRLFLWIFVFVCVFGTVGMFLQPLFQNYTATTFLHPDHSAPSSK
endpoint_label: pKi
Convention used: pKi is expressed as -log10 of the molar concentration.

Give the reported pKi for this molecule. c1cc2c(cn1)[C@@H]1NCC[C@@H]1C2 5.95
